Provenance of the data: patent US20210388087A1

# fold change of affinity listing for each entry below
- target under test: T1, Human CD3eg linker (human)
- T1 construct: single-chain construct; also called recombinant human CD3
- T1 chain: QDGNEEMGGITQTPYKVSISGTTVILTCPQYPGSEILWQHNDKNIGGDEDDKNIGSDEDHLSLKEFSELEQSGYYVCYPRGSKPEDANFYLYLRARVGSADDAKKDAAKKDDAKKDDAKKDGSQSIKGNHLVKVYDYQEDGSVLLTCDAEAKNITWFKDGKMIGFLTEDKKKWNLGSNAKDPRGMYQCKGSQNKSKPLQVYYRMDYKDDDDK
- assay text: SPR, vs unmutated H183/L072

Example entries begin here.
{"binder": "dBBDu183H V100cS/dBBDu072L (antibody, name in Kabat numbering, V domains shown) VH: QVQLVESGGGLVQPGRSLRLSCAASGFTFSNAWMHWVRQAPGKGLEWVAQIKDKGNAYAAYYAPSVKGRFTISRDDSKNSIYLQMNSLKTEDTAVYYCHYVHYASASTSLPAFGVDAWGQGTTVTVSS VL: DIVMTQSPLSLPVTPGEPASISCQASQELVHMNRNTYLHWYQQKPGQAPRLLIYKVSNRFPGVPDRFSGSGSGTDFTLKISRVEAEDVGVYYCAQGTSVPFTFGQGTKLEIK", "fold change of affinity": "1.1 fold"}
{"binder": "dBBDu183H S99E/dBBDu072L (antibody, name in Kabat numbering, V domains shown) VH: QVQLVESGGGLVQPGRSLRLSCAASGFTFSNAWMHWVRQAPGKGLEWVAQIKDKGNAYAAYYAPSVKGRFTISRDDSKNSIYLQMNSLKTEDTAVYYCHYVHYAEASTVLPAFGVDAWGQGTTVTVSS VL: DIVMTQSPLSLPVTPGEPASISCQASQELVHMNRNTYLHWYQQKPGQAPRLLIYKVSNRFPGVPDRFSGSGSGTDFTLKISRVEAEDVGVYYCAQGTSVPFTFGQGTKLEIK", "fold change of affinity": "0.3 fold"}
{"binder": "dBBDu183H G100hS/dBBDu072L (antibody, name in Kabat numbering, V domains shown) VH: QVQLVESGGGLVQPGRSLRLSCAASGFTFSNAWMHWVRQAPGKGLEWVAQIKDKGNAYAAYYAPSVKGRFTISRDDSKNSIYLQMNSLKTEDTAVYYCHYVHYASASTVLPAFSVDAWGQGTTVTVSS VL: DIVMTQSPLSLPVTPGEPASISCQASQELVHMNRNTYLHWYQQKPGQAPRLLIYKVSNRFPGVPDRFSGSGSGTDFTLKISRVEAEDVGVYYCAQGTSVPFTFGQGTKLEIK", "fold change of affinity": "1.1 fold"}
{"binder": "dBBDu183H D101Y/dBBDu072L (antibody, name in Kabat numbering, V domains shown) VH: QVQLVESGGGLVQPGRSLRLSCAASGFTFSNAWMHWVRQAPGKGLEWVAQIKDKGNAYAAYYAPSVKGRFTISRDDSKNSIYLQMNSLKTEDTAVYYCHYVHYASASTVLPAFGVYAWGQGTTVTVSS VL: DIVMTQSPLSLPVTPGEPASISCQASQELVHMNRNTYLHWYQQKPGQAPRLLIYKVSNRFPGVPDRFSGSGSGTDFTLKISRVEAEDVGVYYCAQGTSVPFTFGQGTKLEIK", "fold change of affinity": "0 fold"}

// switching to the query binder
What value of fold change of affinity has been recorded for this entry: dBBDu183H V100iG/dBBDu072L (antibody, name in Kabat numbering, V domains shown) VH: QVQLVESGGGLVQPGRSLRLSCAASGFTFSNAWMHWVRQAPGKGLEWVAQIKDKGNAYAAYYAPSVKGRFTISRDDSKNSIYLQMNSLKTEDTAVYYCHYVHYASASTVLPAFGGDAWGQGTTVTVSS VL: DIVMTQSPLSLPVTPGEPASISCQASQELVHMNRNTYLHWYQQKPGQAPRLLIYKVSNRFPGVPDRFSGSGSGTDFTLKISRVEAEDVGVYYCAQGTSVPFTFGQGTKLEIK 1.8 fold
